// provenance: PubChem BioAssay (NCI)

tested on: RPMI-8226 leukemia; assay: NCI tumour cell line growth inhibition, 48 h
Examples of molecules with documented TGI follow.
reported.metric: TGI (µM)

In [3]: df
Out[3]:
                           structure_smiles  unit_descriptor  operator_symbol  measurement
0  COc1cccc(/C(COc2ccc3c(c2)oc(=O)c2ccccc23)=N\O)c1               µM                >          100
1  Clc1ccc(CNc2ccc3nc(CCC4CCCCC4)[nH]c3c2)cc1               µM                =         5.02
2  COc1cc(-c2cc(/C=C3\C(=O)Nc4cc(Cl)ccc43)[nH]n2)cc(OC)c1OC               µM                =         4.92
3  N#Cc1c2c(c(Nc3ccc(F)cc3)n3c1nc1ccccc13)CCCC2               µM                >          100
4      CCOCc1cc(=O)c2cc3c(cc2o1)OC(C)(C)CC3               µM                >          100
5       O=C1C(N2CCOCC2)=C(Cl)C(=O)c2ncccc21               µM                =         4.34
